From: patent EP4740948A1

- testedOn: EZH1 (Homo sapiens)
- Sequence (Q92800 whole entry, species assumed, one chain of several): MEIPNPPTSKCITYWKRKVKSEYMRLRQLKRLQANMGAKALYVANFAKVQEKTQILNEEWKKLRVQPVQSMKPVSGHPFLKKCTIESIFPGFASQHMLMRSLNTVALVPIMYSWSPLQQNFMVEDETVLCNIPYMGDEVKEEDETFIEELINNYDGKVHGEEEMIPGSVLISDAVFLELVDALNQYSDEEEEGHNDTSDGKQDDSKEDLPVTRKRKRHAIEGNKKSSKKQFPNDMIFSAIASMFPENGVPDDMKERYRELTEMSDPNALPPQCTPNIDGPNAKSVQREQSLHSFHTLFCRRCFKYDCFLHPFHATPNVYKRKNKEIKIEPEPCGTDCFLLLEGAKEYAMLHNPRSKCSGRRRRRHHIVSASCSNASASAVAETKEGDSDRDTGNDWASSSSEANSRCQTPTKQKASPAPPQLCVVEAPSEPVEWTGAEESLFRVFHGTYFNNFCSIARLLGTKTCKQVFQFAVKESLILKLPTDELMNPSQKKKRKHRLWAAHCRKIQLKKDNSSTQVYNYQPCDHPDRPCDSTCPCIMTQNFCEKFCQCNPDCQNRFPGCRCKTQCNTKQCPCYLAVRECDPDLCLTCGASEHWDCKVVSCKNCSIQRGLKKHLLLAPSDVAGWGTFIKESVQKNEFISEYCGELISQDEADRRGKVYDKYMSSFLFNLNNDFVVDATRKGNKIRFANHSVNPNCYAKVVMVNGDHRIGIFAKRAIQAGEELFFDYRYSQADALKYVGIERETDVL
- method: AlphaLISA enzyme activity inhibition, EZH1
- Assay type: biochemical
- measurementParameters: 5nM test substance
Measured inhibition at 0.005 µM, listed per entry.
Use % as the unit, but write only the number.

// solved cases for inhibition at 0.005 µM follow
CSc1cc(C)[nH]c(=O)c1CNC(=O)c1cc(-c2ccc(N3C[C@@H](C)O[C@@H](C)C3)nc2)c2c(c1C)OC(C)([C@H]1CC[C@H](N3CC(O)C3)CC1)O2 (some centres unmarked) ... 38.8
CSc1cc(C)[nH]c(=O)c1CNC(=O)c1cc(-c2ccc(N3C[C@@H](C)O[C@@H](C)C3)nc2)c2c(c1C)OC(C)(C1CCN(CC(F)F)CC1)O2 (single isomer, unassigned) [Compound 47] ... 68.1
CSc1cc(C)[nH]c(=O)c1CNC(=O)c1cc(-c2ccc(N3C[C@@H](C)O[C@@H](C)C3)nc2)c2c(c1C)OC(C)([C@H]1CC[C@H](N(C)C(=O)C(F)(F)F)CC1)O2 (some centres unmarked) ... 6.1
CSc1cc(C)[nH]c(=O)c1CNC(=O)c1cc(-c2ccc(N3C[C@@H](C)O[C@@H](C)C3)nc2)c2c(c1C)OC(C)([C@H]1CC[C@H](N(C)CC(F)(F)F)CC1)O2 (some centres unmarked) [Compound 20] ... 34.3

Then this compound:
Which measured inhibition at 0.005 µM value corresponds to CCN(C)c1ccc(-c2cc(C(=O)NCc3c(SC)cc(C)[nH]c3=O)c(C)c3c2OC(C)(C2CCN(CC(F)F)CC2)O3)cn1 (single isomer, unassigned) ?
45.2

====

- testedOn: EZH2 (Homo sapiens, UniProt Q15910)
- Sequence (Q15910 whole entry, species assumed): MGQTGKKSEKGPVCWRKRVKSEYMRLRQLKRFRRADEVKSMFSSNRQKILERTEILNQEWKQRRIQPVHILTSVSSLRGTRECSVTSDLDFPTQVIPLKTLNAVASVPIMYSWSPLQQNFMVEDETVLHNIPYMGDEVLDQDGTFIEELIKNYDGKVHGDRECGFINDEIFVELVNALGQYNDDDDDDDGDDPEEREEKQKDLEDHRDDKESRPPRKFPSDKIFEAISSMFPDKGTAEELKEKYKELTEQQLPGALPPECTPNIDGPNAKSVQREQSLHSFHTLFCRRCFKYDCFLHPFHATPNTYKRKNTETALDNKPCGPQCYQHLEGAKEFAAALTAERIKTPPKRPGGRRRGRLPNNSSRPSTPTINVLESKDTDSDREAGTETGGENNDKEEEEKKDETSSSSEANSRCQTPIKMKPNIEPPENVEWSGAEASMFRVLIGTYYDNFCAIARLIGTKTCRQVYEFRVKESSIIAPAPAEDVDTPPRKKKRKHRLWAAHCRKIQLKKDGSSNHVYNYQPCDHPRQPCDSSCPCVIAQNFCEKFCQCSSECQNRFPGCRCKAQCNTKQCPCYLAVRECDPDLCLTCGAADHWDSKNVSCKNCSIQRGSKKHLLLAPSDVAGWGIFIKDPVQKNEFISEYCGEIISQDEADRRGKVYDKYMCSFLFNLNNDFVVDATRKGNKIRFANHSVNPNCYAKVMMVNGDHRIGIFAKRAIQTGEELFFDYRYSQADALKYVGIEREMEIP
- Sequence (O75530 whole entry partner, species assumed): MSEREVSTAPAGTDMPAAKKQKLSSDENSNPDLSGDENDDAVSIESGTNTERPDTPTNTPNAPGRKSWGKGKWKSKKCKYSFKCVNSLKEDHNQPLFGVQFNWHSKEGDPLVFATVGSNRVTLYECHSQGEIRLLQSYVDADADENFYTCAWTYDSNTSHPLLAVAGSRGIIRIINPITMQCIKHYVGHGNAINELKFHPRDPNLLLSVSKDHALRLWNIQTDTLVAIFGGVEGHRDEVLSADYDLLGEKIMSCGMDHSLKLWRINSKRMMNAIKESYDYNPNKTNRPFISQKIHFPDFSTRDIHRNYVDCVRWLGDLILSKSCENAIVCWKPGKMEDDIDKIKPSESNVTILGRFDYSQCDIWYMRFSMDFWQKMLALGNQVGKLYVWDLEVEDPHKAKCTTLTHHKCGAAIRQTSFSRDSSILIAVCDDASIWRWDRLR
- Sequence (Q15022 whole entry partner, species assumed): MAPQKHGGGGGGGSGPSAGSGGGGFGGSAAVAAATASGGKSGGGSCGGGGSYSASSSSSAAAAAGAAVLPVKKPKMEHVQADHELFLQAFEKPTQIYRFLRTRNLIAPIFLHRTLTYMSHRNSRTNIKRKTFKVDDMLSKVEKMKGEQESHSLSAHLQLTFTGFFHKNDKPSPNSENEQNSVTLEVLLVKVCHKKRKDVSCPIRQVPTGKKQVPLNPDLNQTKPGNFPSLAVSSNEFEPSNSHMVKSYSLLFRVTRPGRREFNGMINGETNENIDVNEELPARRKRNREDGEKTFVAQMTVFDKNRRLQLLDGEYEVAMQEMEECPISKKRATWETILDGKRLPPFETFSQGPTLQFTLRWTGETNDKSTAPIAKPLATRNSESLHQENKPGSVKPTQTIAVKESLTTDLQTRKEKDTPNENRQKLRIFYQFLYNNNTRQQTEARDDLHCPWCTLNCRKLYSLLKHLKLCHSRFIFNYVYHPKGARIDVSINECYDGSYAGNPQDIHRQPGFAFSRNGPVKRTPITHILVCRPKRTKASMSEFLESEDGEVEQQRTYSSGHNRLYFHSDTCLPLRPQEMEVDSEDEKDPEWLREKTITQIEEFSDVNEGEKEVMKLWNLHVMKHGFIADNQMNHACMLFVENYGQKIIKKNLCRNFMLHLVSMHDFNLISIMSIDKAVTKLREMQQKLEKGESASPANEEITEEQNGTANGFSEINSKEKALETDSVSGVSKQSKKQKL
- method: AlphaLISA enzyme activity inhibition, EZH2
- Type: biochemical
- measurementParameters: 5nM test substance
Recorded inhibition at 0.005 µM values for a group of molecules are listed next.
Number only, in %; omit the unit.

These solved cases illustrate the format of a correct answer.
CSc1cc(C)[nH]c(=O)c1CNC(=O)c1cc(-c2ccc(N3C[C@@H](C)O[C@@H](C)C3)nc2)c2c(c1C)OC(C)(C1CCN(C(=O)C(F)(F)F)CC1)O2 (single isomer, unassigned) ... 98.5
CCN(C)[C@H]1CC[C@H](C2(C)Oc3c(-c4ccc(N5C[C@@H](C)O[C@@H](C)C5)nc4)cc(C(=O)NCc4c(SC)cc(C)[nH]c4=O)c(C)c3O2)CC1 (some centres unmarked) ... 86.7
COC1CN([C@H]2CC[C@H](C3(C)Oc4c(-c5ccc(N6C[C@@H](C)O[C@@H](C)C6)nc5)cc(C(=O)NCc5c(SC)cc(C)[nH]c5=O)c(C)c4O3)CC2)C1 (some centres unmarked) ... 90.6
CSc1cc(C)[nH]c(=O)c1CNC(=O)c1cc(-c2ccsc2)c2c(c1C)OC(C)(C1CCC(N(C)C)CC1)O2 (centres unmarked) ... 90.5

Please find the next molecule below.
Which inhibition at 0.005 µM is reported with EZH2 (Homo sapiens, UniProt Q15910) for this entry: CSc1cc(C)[nH]c(=O)c1CNC(=O)c1cc(-c2ccc(N3CCSCC3)nc2)c2c(c1C)OC(C)(C1CCN(CC(F)(F)F)CC1)O2 (centres unmarked) ?
41.1

====

Recorded inhibition at 0.005 µM by entry
- testedOn: EZH2 (Homo sapiens, UniProt Q15910)
- method: AlphaLISA enzyme activity inhibition, EZH2
- Type: biochemical
- measurementParameters: 5nM test substance
# output: bare number, implied unit %

CCN(C)c1ncc(-c2cc(C(=O)NCc3c(SC)cc(C)[nH]c3=O)c(C)c3c2OC(C)(C2CCN(CC(F)(F)F)CC2)O3)cn1 (centres unmarked) [Compound 78] ... 86.1
CCN(C)c1ccc(-c2cc(C(=O)NCc3c(SC)cc(C)[nH]c3=O)c(C)c3c2OC(C)(C2CCN(CC(F)(F)F)CC2)O3)cn1 (single isomer, unassigned) [Compound 79] ... 97.1

inhibition at 0.005 µM lookup needed for CSc1cc(C)[nH]c(=O)c1CNC(=O)c1cc(-c2cnc(N3CCSCC3)nc2)c2c(c1C)OC(C)(C1CCN(CC(F)(F)F)CC1)O2 (centres unmarked) [Compound 92] , thanks.
80.1

Consider the compound shown here: CSc1cc(C)[nH]c(=O)c1CNC(=O)c1cc(-c2ccc(N3C[C@@H](C)O[C@@H](C)C3)nc2)c2c(c1C)OC(C)([C@H]1CC[C@H](N(C)CC(F)F)CC1)O2 (some centres unmarked) [Compound 109] What is its recorded inhibition at 0.005 µM?
52.4

What value of measured inhibition at 0.005 µM is listed for CSc1cc(C)[nH]c(=O)c1CNC(=O)c1cc(-c2cnc(N3CCOCC3)nc2)c2c(c1C)OC(C)(C1CCN(CC(F)(F)F)CC1)O2 (centres unmarked) [Compound 68] ?
87.3

I'd like to know its inhibition at 0.005 µM. The compound in question is CSc1cc(C)[nH]c(=O)c1CNC(=O)c1cc(-c2ccc3c(c2)OC(F)(F)O3)c2c(c1C)OC(C)(C1CCN(CC(F)(F)F)CC1)O2 (centres unmarked) [Compound 93]
32.2

====

- testedOn: EZH2 (Homo sapiens)
- method: AlphaLISA enzyme activity inhibition, EZH2
- Assay type: biochemical
- measurementParameters: 10nM test substance
reportedEndpoint: inhibition at 0.01 µM (%)
Note: unit % is implicit; provide only the numeric part.

Solved entries (count: 4):
CSc1cc(C)[nH]c(=O)c1CNC(=O)c1cc(-c2ccc3c(c2)OCO3)c2c(c1C)OC(C)(C1CCN(CC(F)F)CC1)O2 (stereo not shown) [Compound 95] ... 91.1
CSc1cc(C)[nH]c(=O)c1CNC(=O)c1cc(-c2ccc(N3C[C@@H](C)O[C@@H](C)C3)nc2)c2c(c1C)OC(C)(C1CCN(CCCC(F)(F)F)CC1)O2 (single isomer, unassigned) [Compound 57] ... 99.4
CSc1cc(C)[nH]c(=O)c1CNC(=O)c1cc(-c2ccc(N3C[C@@H](C)O[C@@H](C)C3)nc2)c2c(c1C)OC(C)(C1CCN(CC(F)F)CC1)O2 (single isomer, unassigned) [Compound 47] ... 99.6
CCN(C)[C@H]1CC[C@H](C2(C)Oc3c(-c4ccc(N5C[C@@H](C)O[C@@H](C)C5)nc4)cc(C(=O)NCc4c(SC)cc(C)[nH]c4=O)c(C)c3O2)CC1 (stereo partly shown) [Compound 111] ... 100

I'd like to know its inhibition at 0.01 µM. The molecule in question is CCN(C)c1ncc(-c2cc(C(=O)NCc3c(SC)cc(C)[nH]c3=O)c(C)c3c2OC(C)(C2CCN(CC(F)(F)F)CC2)O3)cn1 (stereo not shown) [Compound 78]
98.1

Which measured inhibition at 0.01 µM value corresponds to CCN1CCC(C2(C)Oc3c(-c4ccc(N5C[C@@H](C)O[C@@H](C)C5)nc4)cc(C(=O)NCc4c(SC)cc(C)[nH]c4=O)c(C)c3O2)CC1 (single isomer, unassigned) [Compound 49] ?
99.5

Item CCN(C)c1ccc(-c2cc(C(=O)NCc3c(SC)cc(C)[nH]c3=O)c(C)c3c2OC(C)(C2CCN(CC(F)(F)F)CC2)O3)cn1 (single isomer, unassigned) [Compound 79] has what recorded inhibition at 0.01 µM?
99.5

Entry CSc1cc(C)[nH]c(=O)c1CNC(=O)c1cc(-c2ccc(N3C[C@@H](C)O[C@@H](C)C3)nc2)c2c(c1C)OC(C)([C@H]1CC[C@H](N(C)C(C)C)CC1)O2 (stereo partly shown) [Compound 110] has what inhibition at 0.01 µM?
100

Recorded inhibition at 0.01 µM of CCN1CCC(C2(C)Oc3c(-c4cnc(N5CCOCC5)nc4)cc(C(=O)NCc4c(SC)cc(C)[nH]c4=O)c(C)c3O2)CC1 (single isomer, unassigned) [Compound 73] , please.
99.5

Any idea what its inhibition at 0.01 µM is? The molecule is CCN1CCC(C2(C)Oc3c(-c4ccc(N5CCOCC5)nc4)cc(C(=O)NCc4c(SC)cc(C)[nH]c4=O)c(C)c3O2)CC1 (single isomer, unassigned) [Compound 66]
99.6

====

- Tested on: SW-13 cells
- method: Cancer cell proliferation inhibition (Cell Counting Kit-8), adrenal cancer cell line
- Type: cell-based
- measurementParameters: Homo sapiens, SW13, 264 h, 1000 nM, cultured seven to 11 days; read-out: % inhibition rate SW-13
reportedEndpoint: inhibition at 1 µM

CSc1cc(C)[nH]c(=O)c1CNC(=O)c1cc(-c2ccc(N3CC(C)CC(C)C3)nc2)c2c(c1C)OC(C)(C1CCN(CC(F)(F)F)CC1)O2 (stereo not drawn) [Compound 37] ... ≤ 30%

Fill in the blank: the reported inhibition at 1 µM of CSc1cc(C)[nH]c(=O)c1CNC(=O)c1cc(-c2cnc(N3C[C@@H](C)O[C@@H](C)C3)nc2)c2c(c1C)OC(C)([C@H]1CC[C@H](N(C)CC(F)(F)F)CC1)O2 (stereo partly drawn) [Compound 23] is ____.
≤ 30%

Fill in the blank: the reported inhibition at 1 µM of CSc1cc(C)[nH]c(=O)c1CNC(=O)c1cc(-c2ccc(N3C[C@@H](C)O[C@@H](C)C3)nc2)c2c(c1C)OC(C)(C1CCN(CC(F)F)CC1)O2 (single isomer, unassigned) [Compound 47] is ____.
30 to 70%

Reported inhibition at 1 µM for COCCN(C)[C@H]1CC[C@H](C2(C)Oc3c(-c4cnc(N(C)C)nc4)cc(C(=O)NCc4c(SC)cc(C)[nH]c4=O)c(C)c3O2)CC1 (relative stereo) [Compound 26] : what is it?
30 to 70%
